src = patent US20180171001A1

Molecular target: Env of HIV-1 strain 231965.c1 (HIV-1)
Assay: cell-based or functional assay
value.type: neutralization IC50 (µg/mL)
I only need the number, in µg/mL, no unit after it.

# binder, unit.string, experimental.result
records = [
    ("γ15κ11 (antibody, V domains shown) VH: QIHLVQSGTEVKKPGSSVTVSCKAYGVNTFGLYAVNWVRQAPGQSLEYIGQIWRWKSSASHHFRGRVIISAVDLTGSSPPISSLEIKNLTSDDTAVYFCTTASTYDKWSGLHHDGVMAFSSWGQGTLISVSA VL: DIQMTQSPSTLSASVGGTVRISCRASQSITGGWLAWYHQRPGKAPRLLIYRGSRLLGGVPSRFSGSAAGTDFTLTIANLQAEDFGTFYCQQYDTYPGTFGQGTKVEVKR", "µg/mL", 5.1),
]

Now examine the next entry.
The measured neutralization IC50 associated with γ23κ18 (antibody, V domains shown) VH: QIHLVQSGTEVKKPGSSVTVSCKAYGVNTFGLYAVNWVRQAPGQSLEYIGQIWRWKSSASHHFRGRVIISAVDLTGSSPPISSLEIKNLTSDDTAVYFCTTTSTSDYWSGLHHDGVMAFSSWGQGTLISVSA VL: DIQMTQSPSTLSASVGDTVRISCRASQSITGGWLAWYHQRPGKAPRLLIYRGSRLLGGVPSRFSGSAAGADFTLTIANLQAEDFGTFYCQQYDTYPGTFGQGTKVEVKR reads 0.128
